Reported values of kon for individual entries
- experimental.system: T1, monomeric human CD19 antigen Fc(kih) fusion molecule (human, UniProt P0DOX5 223-449 = IgG part)
- T1 construct: also called monomeric CD19-Fc; human CD19-Fc(kih)
- method: SPR ProteOn XPR36, IgG from HEK supernatant captured via anti-human Fab, monomeric CD19-Fc analyte, 1:1 Langmuir

binder	measure.unit	kon
anti-CD19 clone 8B8-5H09 in P329GLALA human IgG1 format (antibody, V domains shown) VH: QVQLVQSGAEVKKPGASVKVSCKASGYTFTDYIMHWVRQAPGQGLEWMGYINPYNDGSKYTEKFQGRVTMTSDTSISTAYMELSRLRSDDTAVYYCARGTYYYGSALFDYWGQGTTVTVSS VL: DIVMTQTPLSLSVTPGQPASISCKSSQSLESSTGNTYLNWYLQKPGQSPQLLIYRVSKRFSGVPDRFSGSGSGTDFTLKISRVEAEDVGVYYCLQLIDYPVTFGQGTKLEIKR	M⁻¹ s⁻¹	79100
anti-CD19 clone 8B8-5D08 in P329GLALA human IgG1 format (antibody, V domains shown) VH: QVQLVQSGAEVKKPGASVKVSCKASGYTFTDYIMHWVRQAPGQGLEWMGYINPYNDGSKYTEKFQGRVTMTSDTSISTAYMELSRLRSDDTAVYYCARGTYYYGSELFDYWGQGTTVTVSS VL: DIVMTQTPLSLSVTPGQPASISCKSSQSLETSTGNTYLNWYLQKPGQSPQLLIYRVSKRFSGVPDRFSGSGSGTDFTLKISRVEAEDVGVYYCLQLTHEPYTFGQGTKLEIKR	M⁻¹ s⁻¹	88800
anti-CD19 clone 8B8-7H07 in P329GLALA human IgG1 format (antibody, V domains shown) VH: QVQLVQSGAEVKKPGASVKVSCKASGYTFTDYIMHWVRQAPGQGLEWMGYINPYNDGSKYTEKFQGRVTMTSDTSISTAYMELSRLRSDDTAVYYCARGTYYYGSELFDYWGQGTTVTVSS VL: DIVMTQTPLSLSVTPGQPASISCKSSQSLETSTGNTYLNWYLQKPGQSPQLLIYRVSKRFSGVPDRFSGSGSGTDFTLKISRVEAEDVGVYYCLQATHIPYTFGQGTKLEIKR	M⁻¹ s⁻¹	74500
